- Protocol Text: AUC in bacterial pathogen-infected neutropenic Swiss ICR mouse thigh infection model at 2.5 mg/kg, ip
- Format: ADME, organism-based
- Design: dose 2.5 mg/kg, route intraperitoneal
- Applied Conditions: in vivo
Measured Metric: AUC (µg·h/mL)
Numbers only here, please. The scale is µg·h/mL.

# AUC (molecule: CN[C@H]1C(=O)N[C@@H]2Cc3ccc(cc3)Oc3cc4cc(c3O[C@@H]3O[C@H](C(=O)O)[C@@H](O)[C@H](O)[C@H]3NC(=O)CCCCCCCCC(C)C)Oc3ccc(cc3Cl)[C@@H](O)[C@@H]3NC(=O)[C@H](NC(=O)[C@@H]4NC(=O)[C@@H](NC2=O)c2cc(cc(O)c2Cl)Oc2cc1ccc2O)c1ccc(O)c(c1)-c1c(O[C@H]2O[C@H](CO)[C@@H](O)[C@H](O)[C@@H]2O)cc(O)cc1[C@@H](C(=O)NCCCN(C)C)NC3=O [DALBAVANCIN] ) is 98

* * *

- Protocol Text: Half life in bacterial pathogen-infected neutropenic Swiss ICR mouse thigh infection model at 2.5 mg/kg, ip
- Type: ADME, organism-based
- Parameters: dose 2.5 mg/kg, route intraperitoneal
- Applied Conditions: in vivo
Measured Metric: half-life (h)
Numbers only here, please. The scale is h.

# half-life (compound: CN[C@H]1C(=O)N[C@@H]2Cc3ccc(cc3)Oc3cc4cc(c3O[C@@H]3O[C@H](C(=O)O)[C@@H](O)[C@H](O)[C@H]3NC(=O)CCCCCCCCC(C)C)Oc3ccc(cc3Cl)[C@@H](O)[C@@H]3NC(=O)[C@H](NC(=O)[C@@H]4NC(=O)[C@@H](NC2=O)c2cc(cc(O)c2Cl)Oc2cc1ccc2O)c1ccc(O)c(c1)-c1c(O[C@H]2O[C@H](CO)[C@@H](O)[C@H](O)[C@@H]2O)cc(O)cc1[C@@H](C(=O)NCCCN(C)C)NC3=O [DALBAVANCIN] ) is 13.1

* * *

- Protocol Text: AUC in bacterial pathogen-infected neutropenic Swiss ICR mouse thigh infection model at 40 mg/kg, ip
- Assay type: ADME, organism-based
- Set-up: dose 40 mg/kg, route intraperitoneal
- Applied Conditions: in vivo
Measured Metric: AUC (µg·h/mL)
Numbers only here, please. The scale is µg·h/mL.

# AUC (compound: "CN[C@H]1C(=O)N[C@@H]2Cc3ccc(cc3)Oc3cc4cc(c3O[C@@H]3O[C@H](C(=O)O)[C@@H](O)[C@H](O)[C@H]3NC(=O)CCCCCCCCC(C)C)Oc3ccc(cc3Cl)[C@@H](O)[C@@H]3NC(=O)[C@H](NC(=O)[C@@H]4NC(=O)[C@@H](NC2=O)c2cc(cc(O)c2Cl)Oc2cc1ccc2O)c1ccc(O)c(c1)-c1c(O[C@H]2O[C@H](CO)[C@@H](O)[C@H](O)[C@@H]2O)cc(O)cc1[C@@H](C(=O)NCCCN(C)C)NC3=O" ) is 10600

* * *

- Tested on: Mus musculus
- Protocol Text: AUC in bacterial pathogen-infected neutropenic Swiss ICR mouse thigh infection model at 10 mg/kg, ip
- Type: ADME, organism-based
- Set-up: dose 10 mg/kg, route intraperitoneal
- Applied Conditions: in vivo
Measured Metric: AUC (mg·h/L)
Numbers only here, please. The scale is mg·h/L.

# AUC (molecule: CN[C@H]1C(=O)N[C@@H]2Cc3ccc(cc3)Oc3cc4cc(c3O[C@@H]3O[C@H](C(=O)O)[C@@H](O)[C@H](O)[C@H]3NC(=O)CCCCCCCCC(C)C)Oc3ccc(cc3Cl)[C@@H](O)[C@@H]3NC(=O)[C@H](NC(=O)[C@@H]4NC(=O)[C@@H](NC2=O)c2cc(cc(O)c2Cl)Oc2cc1ccc2O)c1ccc(O)c(c1)-c1c(O[C@H]2O[C@H](CO)[C@@H](O)[C@H](O)[C@@H]2O)cc(O)cc1[C@@H](C(=O)NCCCN(C)C)NC3=O [DALBAVANCIN] ) is 579

Origin of the recorded values: ChEMBL document CHEMBL1145462
